# RUN DESCRIPTION: Equilibrium fluorescence titration with Co(II)
# Type: binding
# EXPERIMENTAL PARAMETERS: 1 µM apoprotein, 25 °C; read-out: Dissociation constant Kd, Co(II)
PROPERTY: pKd
Scale: pKd equals -log10([C]), with [C] in mol/L.

Consider the worked cases shown below.
| MOLECULE | PROPERTY | RESULT NUMBER |
| --- | --- | --- |
| Y143F ALKBH3: ALKBH3 mutant, Tyr143 replaced with Phe (protein, UniProt Q96Q83 1-286, looked up, variant Y143F) Alpha-ketoglutarate-dependent …: MEEKRRRARVQGAWAAPVKSQAIAQPATTAKSHLHQKPGQTWKNKEHHLSDREFVFKEPQQVVRRAPEPRVIDREGVYEISLSPTGVSRVCLYPGFVDVKEADWILEQLCQDVPWKQRTGIREDITYQQPRLTAWYGELPYTFSRITMEPNPHWHPVLRTLKNRIEENTGHTFNSLLCNLYRNEKDSVDWHSDDEPSLGRCPIIASLSFGATRTFEMRKKPPPEENGDYTYVERVKIPLDHGTLLIMEGATQADWQHRVPKEYHSREPRVNLTFRTVYPDPRGAPW | pKd | 4.40 |
| Y143A ALKBH3: ALKBH3 mutant, Tyr143 replaced with Ala (protein, UniProt Q96Q83 1-286, looked up, variant Y143A) Alpha-ketoglutarate-dependent …: MEEKRRRARVQGAWAAPVKSQAIAQPATTAKSHLHQKPGQTWKNKEHHLSDREFVFKEPQQVVRRAPEPRVIDREGVYEISLSPTGVSRVCLYPGFVDVKEADWILEQLCQDVPWKQRTGIREDITYQQPRLTAWYGELPYTASRITMEPNPHWHPVLRTLKNRIEENTGHTFNSLLCNLYRNEKDSVDWHSDDEPSLGRCPIIASLSFGATRTFEMRKKPPPEENGDYTYVERVKIPLDHGTLLIMEGATQADWQHRVPKEYHSREPRVNLTFRTVYPDPRGAPW | pKd | 4.36 |

Now look at this one.
Report pKd for H191A ALKBH3: ALKBH3 mutant, His191 replaced with Ala (protein, UniProt Q96Q83 1-286, looked up, variant H191A) Alpha-ketoglutarate-dependent …: MEEKRRRARVQGAWAAPVKSQAIAQPATTAKSHLHQKPGQTWKNKEHHLSDREFVFKEPQQVVRRAPEPRVIDREGVYEISLSPTGVSRVCLYPGFVDVKEADWILEQLCQDVPWKQRTGIREDITYQQPRLTAWYGELPYTYSRITMEPNPHWHPVLRTLKNRIEENTGHTFNSLLCNLYRNEKDSVDWASDDEPSLGRCPIIASLSFGATRTFEMRKKPPPEENGDYTYVERVKIPLDHGTLLIMEGATQADWQHRVPKEYHSREPRVNLTFRTVYPDPRGAPW
4.23
